# targetDesc: T1, human GIP receptor (human, UniProt P48546 22-466)
# T1 sequence (looked up): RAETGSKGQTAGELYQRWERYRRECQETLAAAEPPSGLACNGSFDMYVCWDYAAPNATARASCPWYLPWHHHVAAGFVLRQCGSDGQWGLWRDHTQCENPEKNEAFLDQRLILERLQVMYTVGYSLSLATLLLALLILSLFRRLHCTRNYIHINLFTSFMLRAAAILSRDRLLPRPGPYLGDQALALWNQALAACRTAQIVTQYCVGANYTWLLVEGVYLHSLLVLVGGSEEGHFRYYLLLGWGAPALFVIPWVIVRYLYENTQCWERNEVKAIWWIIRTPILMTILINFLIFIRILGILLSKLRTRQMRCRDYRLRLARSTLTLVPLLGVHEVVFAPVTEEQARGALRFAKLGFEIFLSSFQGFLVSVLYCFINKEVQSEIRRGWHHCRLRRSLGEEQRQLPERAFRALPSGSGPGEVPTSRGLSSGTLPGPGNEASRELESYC
# assaySummary: cell-based or functional assay
*1 amine or outer side, *2 acyl side, *3 side chain or, on linkers, in order; H or OH if unused. Where no end group is shown, it is not given here. Side-chain parts run from the residue outwards. [ ]: non-standard residue; d: D form. The star is where a group is joined. αMePhe(2-F) = C[C@](N)(Cc1ccccc1F)C(=O)O; γGlu = O=C(O)[C@H](CCC(=O)[*:2])N[*:1]; C14 diacid = O=C(O)CCCCCCCCCCCCC(=O)*; αMeY = C[C@](N)(Cc1ccc(O)cc1)C(=O)O; αMeL = CC(C)C[C@](C)(N)C(=O)O; Orn = NCCC[C@H](N)C(=O)O; AEEA = NCCOCCOCC(=O)O; Aib = CC(C)(N)C(=O)O

- binder: "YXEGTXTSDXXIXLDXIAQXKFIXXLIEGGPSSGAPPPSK (Y-Aib-EGT-αMeF(2F)-TSD-4Pal-Aib-I-αMeL-LD-Orn-IAQ-Aib-K((2-[2-(2-Amino-ethoxy)-ethoxy]-acetyl)2-(γ-Glu)-(10-(4-carboxyphenoxy)decanoyl))FI-(D-Glu)-αMeY-LIEGGPSSGAPPPSK((2-[2-(2-Amino-ethoxy)-ethoxy]-acetyl)2-(γ-Glu)-(10-(4-carboxyphenoxy)decanoyl))-NH2) [Example 248]"
  cAMP Emax (1.0% HSA) [%]: 91.8
- binder: "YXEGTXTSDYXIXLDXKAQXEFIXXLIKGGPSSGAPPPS (Y-Aib-EGT-αMeF(2F)-TSDY-Aib-I-αMeL-LD-Orn-K((2-[2-(2-Amino-ethoxy)-ethoxy]-acetyl)2-(γ-Glu)-CO-(CH2)12-CO2H)AQ-Aib-EFI-(D-Glu)-αMeY-LIK((2-[2-(2-Amino-ethoxy)-ethoxy]-acetyl)2-(γ-Glu)-CO-(CH2)12-CO2H)GGPSSGAPPPS-NH2) [Example 231]"
  cAMP Emax (1.0% HSA) [%]: 85.4
- binder: "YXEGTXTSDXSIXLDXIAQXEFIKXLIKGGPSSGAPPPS (Y-Aib-EGT-αMeF(2F)-TSD-hTyr-SI-αMeL-LD-Orn-IAQ-Aib-EFIK((2-[2-(2-Amino-ethoxy)-ethoxy]-acetyl)2-(γ-Glu)-CO-(CH2)12-CO2H)-αMeY-LIK((2-[2-(2-Amino-ethoxy)-ethoxy]-acetyl)2-(γ-Glu)-CO-(CH2)12-CO2H)GGPSSGAPPPS-NH2) [Example 270]"
  cAMP Emax (1.0% HSA) [%]: 80.9
- binder: "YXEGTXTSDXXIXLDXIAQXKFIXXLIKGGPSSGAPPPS (Y-Aib-EGT-αMeF(2F)-TSD-4Pal-Aib-I-αMeL-LD-Orn-IAQ-Aib-K((2-[2-(2-Amino-ethoxy)-ethoxy]-acetyl)2-(γ-Glu)-(10-(4-carboxyphenoxy)decanoyl))FI-(D-Glu)-αMeY-LIK((2-[2-(2-Amino-ethoxy)-ethoxy]-acetyl)2-(γ-Glu)-(10-(4-carboxyphenoxy)decanoyl))GGPSSGAPPPS-NH2) [Example 247]"
  cAMP Emax (1.0% HSA) [%]: 90.2
- binder: "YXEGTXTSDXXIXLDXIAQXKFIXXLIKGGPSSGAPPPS (Y-Aib-EGT-αMeF(2F)-TSD-4Pal-Aib-I-αMeL-LD-Orn-IAQ-Aib-K((2-[2-(2-Amino-ethoxy)-ethoxy]-acetyl)2-(γ-Glu)-CO-(CH2)12-CO2H)FI-(D-Glu)-αMeY-LIK((2-[2-(2-Amino-ethoxy)-ethoxy]-acetyl)2-(γ-Glu)-CO-(CH2)12-CO2H)GGPSSGAPPPS-NH2) [Example 220]"
  cAMP Emax (1.0% HSA) [%]: 83.5
- binder: "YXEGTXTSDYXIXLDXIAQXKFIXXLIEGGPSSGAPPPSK (Y-Aib-EGT-aMeF(2F)-TSDY-Aib-I-aMeL-LD-Orn-IAQ-Aib-K((2-[2-(2-Amino-ethoxy)-ethoxy]-acetyl)2-(γ-Glu)-CO-(CH2)12-CO2H)FI-(D-Glu)-αMeY-LIEGGPSSGAPPPSK((2-[2-(2-Amino-ethoxy)-ethoxy]-acetyl)2-(γ-Glu)-CO-(CH2)12-CO2H)-NH2) [Example 235]"
  cAMP Emax (1.0% HSA) [%]: 92.2
- binder: "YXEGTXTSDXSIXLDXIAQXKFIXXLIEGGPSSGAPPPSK (Y-Aib-EGT-αMeF(2F)-TSD-4Pal-SI-αMeL-LD-Orn-IAQ-Aib-K((2-[2-(2-Amino-ethoxy)-ethoxy]-acetyl)3-(γ-Glu)-CO-(CH2)12-CO2H)FI-(D-Glu)-αMeY-LIEGGPSSGAPPPSK((2-[2-(2-Amino-ethoxy)-ethoxy]-acetyl)3-(γ-Glu)-CO-(CH2)12-CO2H)-NH2) [Example 228]"
  cAMP Emax (1.0% HSA) [%]: 83.3
- binder: "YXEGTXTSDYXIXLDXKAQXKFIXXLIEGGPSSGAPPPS (Y-Aib-EGT-αMeF(2F)-TSDY-Aib-I-αMeL-LD-Orn-K((2-[2-(2-Amino-ethoxy)-ethoxy]-acetyl)2-(γ-Glu)-CO-(CH2)10-CH3)AQ-Aib-K((2-[2-(2-Amino-ethoxy)-ethoxy]-acetyl)2-(γ-Glu)-CO-(CH2)10-CH3)FI-(D-Glu)-αMeY-LIEGGPSSGAPPPS-NH2) [Example 300]"
  cAMP Emax (1.0% HSA) [%]: 91.5
- binder: "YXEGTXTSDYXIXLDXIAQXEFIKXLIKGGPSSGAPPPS (Y-Aib-EGT-αMeF(2F)-TSDY-Aib-I-αMeL-LD-Orn-IAQ-Aib-EFIK((2-[2-(2-Amino-ethoxy)-ethoxy]-acetyl)2-(γ-Glu)-CO-(CH2)12-CO2H)-αMeY-LIK((2-[2-(2-Amino-ethoxy)-ethoxy]-acetyl)2-(γ-Glu)-CO-(CH2)12-CO2H)GGPSSGAPPPS-NH2) [Example 233]"
  cAMP Emax (1.0% HSA) [%]: 91.4
- binder: "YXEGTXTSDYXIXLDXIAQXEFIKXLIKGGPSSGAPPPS (Y-Aib-EGT-αMeF(2F)-TSDY-Aib-I-αMeL-LD-Orn-IAQ-Aib-EFIK(2-[2-(2-Amino-ethoxy)-ethoxy]-acetyl)2-(γ-Glu)-(11-(4-carboxyphenoxy)undecanoyl)-αMeY-LIK((2-[2-(2-Amino-ethoxy)-ethoxy]-acetyl)2-(γ-Glu)-(11-(4-carboxyphenoxy)undecanoyl)GGPSSGAPPPS-NH2)) [Example 312]"
  cAMP Emax (1.0% HSA) [%]: 89.5
- binder: "Y[Aib]EGT[αMePhe(2-F)]TSDV[Aib]I[αMeL]LD[Orn]IAQ[Aib][Orn]FIK([AEEA-AEEA-γGlu-C14 diacid])[αMeY]LIK([AEEA-AEEA-γGlu-C14 diacid])GGPSSGAPPPS-NH2 [Example 317]"
  cAMP Emax (1.0% HSA) [%]: 84.4
- binder: "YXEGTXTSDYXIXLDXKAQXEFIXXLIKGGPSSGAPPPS (Y-Aib-EGT-αMeF(2F)-TSDY-Aib-I-αMeL-LD-Orn-K((2-[2-(2-Amino-ethoxy)-ethoxy]-acetyl)2-(γ-Glu)-(10-(4-carboxyphenoxy)decanoyl))AQ-Aib-EFI-(D-Glu)-αMeY-LIK((2-[2-(2-Amino-ethoxy)-ethoxy]-acetyl)2-(γ-Glu)-(10-(4-carboxyphenoxy)decanoyl))GGPSSGAPPPS-NH2) [Example 237]"
  cAMP Emax (1.0% HSA) [%]: 93.1
